These entries and their values trace back to patent US8569339B2.

Give measured Sol pH 7.4 for each item. Keep answers brief.
procedure.details: Assessment of solubility (HT solubility, pION, UV)
Assay type: physicochemical
cond: pH 7.4 buffer, incubated 16-19 hours, 1.0% DMSO, 100 uM
One number for each entry, in μg/mL.

Tell me the measured Sol pH 7.4 of Cc1ccc(OCc2ccc3c(c2C)CCN(C)C3)c(-c2cccc(-n3ncc(C(=O)O)c3C(F)(F)F)n2)c1 [Compound 38] , please. 18.4

Let's switch to this molecule now.
Tell me the measured Sol pH 7.4 of Cc1ccc(OCc2ccc3c(c2C)CCN(C2CCOC2)C3)c(-c2cccc(-c3ncc(C(=O)O)n3C)n2)c1 (stereo not shown) [Compound 54] , please. 32.6
